- assay name: basal MM1S mitochondrial membrane potential changes, profiling panel, cell-based, JC-1 fluorescence, 24 h, 100 nL compound (AID 1170); also: test concentration not given here
- run parameters: higher = more signal
Quick rule for you: z-score at -0.3 or higher means true (1), lower means false (0).

Query: Hi, just wondering whether COC(=O)CC=C[C@@H](C)[C@@H](C=NOCC[C@@H]1C=C[C@H](OC(C)=O)[C@@H](COC(C)=O)O1)NS(=O)(=O)c1ccc(C)cc1 shows z-score of -0.3 or higher.
Result: true (1)

Query: Could you tell me if the measured z-score of C=CC[C@@H]1C=C[C@H](ON=C(C)CCC(=O)OC[C@H]2O[C@H](c3ccccc3)C=C[C@@H]2Oc2ccc(OC)cc2)[C@@H](CO)O1 reaches -0.3 or more?
Result: false (0)

Query: Does the compound CCOC(=O)[C@H](CC(C)C)NC(=O)CCC1CC(OC(=O)NCc2ccc3c(c2)OCO3)CC2(CCCC(COC(=O)NCc3cccc(C(F)(F)F)c3)O2)O1 (some centres not stated) have recorded z-score that is -0.3 or more?
Result: false (0)

Query: Is z-score at least -0.3? Consider CC(CCN1CCCCc2nc(C)c(C)cc21)=NO[C@@H](C)c1cn([C@H](CO)Cc2ccccc2)nn1
Result: false (0)

Query: Say whether O=C1[C@H]2[C@H]3[C@H](O)[C@H](O)CC(=NOCc4ccccc4)[C@@H]3CC[C@H]2C(=O)N1c1ccc(F)cc1F shows z-score of -0.3 or more.
Result: false (0)

Query: Given the entry CO[C@H]1COC(=O)[C@@H](C)COC(=O)[C@H](C)NC(=O)CC=C[C@H]1C , answer whether its z-score meets or surpasses -0.3.
Result: true (1)

Query: Hi team, for COCOc1ccc(Br)cc1C(=O)[C@@H]1O[C@H]1c1cccc(OC)c1 , is the recorded z-score at or above -0.3?
Result: true (1)

----------
- assay name: basal S. cerevisiae growth modulation, no modifier, primary screen, OD600, strain BY4716, 24 h, basal condition (AID 1173)
- run parameters: OD600, 24 h, higher = more signal, called active from +8 up or from −8 down
Would you kindly list z-score for each of these compounds?
Form field (numeric): enter value without unit.

Query: Which z-score value is on record for C[C@@H](c1ccccc1)N1C(=O)[C@H]2[C@H]3[C@H](O)[C@H](O)CC(=NOCc4ccccc4)[C@H]3CC[C@H]2C1=O ?
Result: -0.18

Query: Report z-score for CCOC(=O)[C@H](Cc1ccccc1)NC(=O)CCC1CC(OC(=O)NCCc2ccc(F)cc2)CC2(CCCC(COC(=O)NCC3CCCCC3)O2)O1 (some centres undefined) please.
Result: -0.362

Query: For CCOC(=O)[C@H](CC(C)C)NC(=O)CCC1CC(OC(=O)NCc2cccc3ccccc23)CC2(CCCC(COC(=O)NCCOc3ccccc3)O2)O1 (some centres undefined) , what is its reported z-score?
Result: -0.895

Query: What value of z-score has been recorded for this entry: CCOC(=O)C1=NO[C@@]2(C=C(Br)C3(OCCCO3)[C@H]3O[C@H]32)C1
Result: -0.303

Query: For the compound shown here, CCOC(=O)[C@H](Cc1ccccc1)NC(=O)CCC1CC(OC(=O)NCc2cccc3ccccc23)CC2(CCCC(COC(=O)NCc3cccc(C(F)(F)F)c3)O2)O1 (some centres undefined) , give the reported z-score.
Result: -0.168

Query: Which measured z-score value corresponds to CC(C)CON=C1C[C@@H](O)[C@@H](O)[C@@H]2[C@@H]3C(=O)N(c4cccc(Oc5ccccc5)c4)C(=O)[C@@H]3CC[C@@H]12 ?
Result: -1.81

Query: Sample COC(=O)CC=C[C@@H](C)[C@@H](C=NO[C@@H](C)c1cc(-c2c(C)cc(C)cc2C)no1)NS(=O)(=O)c1ccc(C)cc1 — what was its z-score?
Result: -0.358

Query: I'd like to know its z-score. The compound in question is CCOC(=O)[C@H](CC(C)C)NC(=O)CCC1CC(OC(=O)NCc2cccc3ccccc23)CC2(CCCC(COC(=O)NCCOC)O2)O1 (some centres undefined)
Result: -2.14

Query: Which z-score reading was recorded for the compound CCOC(=O)NN=C1C[C@@H](O)[C@@H](O)[C@@H]2[C@@H]3C(=O)N(Cc4ccccc4)C(=O)[C@@H]3CC[C@H]12 ?
Result: -0.892

Query: z-score; subject: CO[C@H]1COC(=O)[C@@H]2CCCN2C(=O)CC=C[C@@H](C)[C@H](OC)COC(=O)[C@@H](OCc2ccccc2)C=C[C@@H]1C
Result: -1.72

Query: What does the record list as z-score for O=C1C[C@@H](O)[C@@H](O)[C@@H]2[C@@H]3C(=O)N(Cc4ccccc4)C(=O)[C@@H]3CC[C@@H]12 ?
Result: 0.178

Query: Please look up its z-score: O=C1C[C@@H](O)[C@@H](O)[C@@H]2[C@@H]3C(=O)N(Cc4ccc5c(c4)OCO5)C(=O)[C@@H]3CC[C@H]12
Result: 0.0442

Query: Given C=Cc1ccc([C@H]2N[C@H](C(=O)O)CC[C@@H]2C)cc1 , state its recorded z-score.
Result: -0.366

Query: Any idea what z-score was measured for C[C@@H](ON=C1[C@H]2CCn3c(=O)n(-c4ccccc4)c(=O)n3[C@H]2[C@H](O)[C@@H]2O[C@H]12)c1cn([C@@H]2COC[C@H]2O)nn1 ?
Result: 0.337

Query: // returns reported z-score for input CCOC(=O)[C@H](Cc1ccccc1)NC(=O)OC1CC(CCC2CC(CC)=NO2)OC2(CCCC(COC(=O)NCCC(C)C)O2)C1 (some centres undefined)
Result: 0.633

Query: Which z-score is listed for CC(C)=NO[C@H](C)c1cn([C@H](CO)Cc2ccccc2)nn1 ?
Result: -0.489

Query: May I ask what z-score has been recorded for CCCNC(=O)OC[C@H]1O[C@H](CCON=C(C)C)C=C[C@@H]1Oc1ccc(OC)cc1 ?
Result: -2.44

Query: Need z-score of CC(CCN1CCc2nc(-c3ccccc3)c(-c3ccccc3)cc2C1)=NOC[C@@H](O)[C@H]1O[C@@H]2OC(C)(C)O[C@@H]2[C@H]1O , thanks.
Result: -3.84

Query: Would you mind telling me what z-score value was observed for CC(CCN1CCc2nc(-c3ccccc3)c(-c3ccccc3)cc2C1)=NOC[C@@H](O)COCc1ccco1 ?
Result: -2

Query: # get_value(readout='z-score', item= CCOC(=O)[C@H](CC(C)C)NC(=O)CCC1CC(OC(=O)NCc2ccc3c(c2)OCO3)CC2(CCCC(COC(=O)NCc3cccc(C(F)(F)F)c3)O2)O1 (some centres undefined) )
Result: 0.3

Query: Give the measured z-score of CCc1cc2c(nc1CC)CCN(CCC(C)=NO[C@H](C)c1cn([C@@H]3COC[C@H]3O)nn1)C2 .
Result: 0.485

Query: Field request: z-score | item: C=CC1=C[C@H](O)[C@@H]2O[C@@H]2C12OCCCO2
Result: 0.301

Query: Query (compound): CCOC(=O)NN=C1C[C@@H](O)[C@@H](O)[C@@H]2[C@@H]3C(=O)N([C@@H](C)c4ccccc4)C(=O)[C@@H]3CC[C@H]12 ; field requested: z-score
Result: 0.448

Query: Find the recorded z-score belonging to CCOC(=O)CCN1C(=O)[C@H]2[C@H]3[C@H](O)[C@H](O)CC(=NOCc4ccccc4)[C@H]3CC[C@H]2C1=O and report it.
Result: 0.556

Query: Sample CCN1C(=O)[C@H]2[C@H]3[C@H](O)[C@H](O)CC(=O)[C@H]3CC[C@H]2C1=O — what was its z-score?
Result: -0.286

Query: So what does the record say about z-score for C#CCCCON=C1[C@H]2CCn3c(=O)n(-c4ccccc4)c(=O)n3[C@H]2[C@H](O)[C@@H]2O[C@H]12 ?
Result: -1.34

Query: Please give the measured z-score for this compound: COC(=O)CC=C[C@@H](C)[C@@H](C=NOC[C@@H](O)[C@H]1O[C@@H]2OC(C)(C)O[C@@H]2[C@H]1O)NS(=O)(=O)c1ccc(C)cc1
Result: 0.185

Query: Requested read-out: z-score. Entry: O=C1[C@H]2[C@H]3[C@H](O)[C@H](O)CC(=NOCc4ccccc4)[C@@H]3CC[C@H]2C(=O)N1c1ccc(F)cc1F
Result: -0.584

Query: Record request: z-score value, item CCOC(=O)NN=C1C[C@@H](O)[C@@H](O)[C@@H]2[C@@H]3C(=O)N(C(C)(C)C)C(=O)[C@@H]3CC[C@H]12
Result: -0.962
